Assay: Particle size, PDI, Zeta and entrapment efficiency of each LNP@mRNA
Type: physicochemical
Conditions: LNP@mRNA of compound:cholesterol:DSPC:PEG-DMG 50:38.5:10:1.5 molar, luciferase mRNA, PBS pH 7.4 (Example 25)
PDI by entry:
The answer should be a number; do not append a unit.

// known answers, use as guide
CCCCCCC(CCCC)C(=O)OCCCCOC(=O)CCN(CCCCCO)CCC(=O)OCCCCOC(=O)C(CCCC)CCCCCC (stereo not drawn) : 0.07
CCCCCCCCC(CCCCCC)C(=O)OCCCCOC(=O)CCN(CCCO)CCC(=O)OCCCCOC(=O)C(CCCCCC)CCCCCCCC (stereo not drawn) : 0.07

Inquiry: Give the measured PDI of CCCCCCCCC(CCCCCC)C(=O)OCCCCOC(=O)CCN(CCCCO)CCC(=O)OCCCCOC(=O)C(CCCCCC)CCCCCCCC (stereo not drawn) .
Reply text: 0.07
